# protocol-description: physchem
# condition-details: water, thermodynamic from solid
property-measured: solubility thermodynamic at 72 h (µg/mL)
Numbers only here, please. The scale is µg/mL.

The measured solubility thermodynamic at 72 h associated with CN(C)C(=O)C(CCN1CCC(O)(c2ccc(Cl)cc2)CC1)(c1ccccc1)c1ccccc1 [Loperamide, loperamide] reads 72.3

The measured solubility thermodynamic at 72 h associated with O=C(CCCN1CCC(O)(c2ccc(Cl)cc2)CC1)c1ccc(F)cc1 reads 2.6

###

# protocol-description: physchem
# condition-details: simulated gastric fluid, thermodynamic from solid
property-measured: solubility thermodynamic at 72 h
Answer with the number, then the unit.

The measured solubility thermodynamic at 72 h associated with O=C(CCCN1CCC(O)(c2ccc(Cl)cc2)CC1)c1ccc(F)cc1 [Haloperidol, haloperidol] reads 600 µg/mL
